What MIC was measured for each of the following?
*1 amine or outer side, *2 acyl side, *3 side chain or, on linkers, in order; H or OH if unused. Where a SMILES comes first, the peptide text is derived from it. Bridges are numbered along the chain shown (N, C = ends). [ ]: non-standard residue; d: D form. The star is where a group is joined. NH(1,3-benzodioxol-5-yl) = c1cc2c(cc1N*)OCO2; Phe(3,5-F2) = N[C@@H](Cc1cc(F)cc(F)c1)C(=O)O; aThr = C[C@H](O)[C@H](N)C(=O)O; Pip = O=C(O)[C@@H]1CCCCN1; CO = O=C([*:1])[*:2]
Supply the numeric figure in µM, leaving out any unit text.

The measured MIC that C[C@H]1CC2C(=O)OC[C@H](NC(=O)[C@H](Cc3cc(F)cc(F)c3)NC(=O)Nc3ccc4c(c3)OCO4)C(=O)N3CCCC3C(=O)N3CCCCC3C(=O)N[C@@H](C)C(=O)N2C1 (some centres unmarked) [Compound 46] showed for Staphylococcus aureus, USA 300 is 3.1

Staphylococcus aureus, USA 300 assay, compound C[C@@H]1NC(=O)[C@@H]2CCCCN2C(=O)[C@@H]2CCCN2C(=O)[C@@H](NC(=O)[C@H](Cc2cc(F)cc(F)c2)NC(=O)Nc2ccc3c(c2)OCO3)[C@H](C)OC(=O)[C@@H]2CCCN2C1=O [Compound 17] ({NH(1,3-benzodioxol-5-yl)-CO}-[Phe(3,5-F2)][aThr]P[Pip]AP; ester 2-C) , recorded MIC = 3.1
